System: HCT-116
experimental-protocol: NCI tumour cell line growth inhibition, 48 h
Active and inactive are the calls of the source. Rule as the data show it: active = GI50 up to about 1.1 µM and inactive = higher.
readout-name: GI50

CC(=O)NC1C(OCc2ccccc2)OC(CO)C(O)C1OCC(=O)N1CCCC1C(=O)N[C@@H](CCC(=O)NCCNCCNc1c2ccccc2nc2cccc([N+](=O)[O-])c12)C(N)=O (stereo partly drawn)    0.979 µM (active)
O=C(CSc1nnc(-c2ccccn2)s1)N/N=C/c1ccc([N+](=O)[O-])cc1    55.7 µM (inactive)
COc1cc(-c2oc3c(OC)c(O)cc(O)c3c(=O)c2OC)ccc1O    6.4 µM (inactive)
O=c1c2cc([N+](=O)[O-])cnc2sn1-c1ccc(Br)cc1    19.5 µM (inactive)
Nn1c(S)nnc1NNC(=O)C(=O)Nc1cc(Cl)c(Cl)cc1Cl    > 100 µM (inactive)

What GI50 value was documented for this compound, Cn1cc(S(=O)(=O)NC(=O)Nc2ccc(Cl)cc2)c(=O)c2ccc(Cl)cc21 ?
84.1 µM (inactive)

What GI50 value was documented for this compound, O=C(O)CC(Cc1ccc2c(c1)OCO2)C(=O)O (stereo not drawn) ?
> 100 µM (inactive)

What GI50 value was documented for this compound, O=C(/N=N/c1ccc(Br)cc1)NNc1ccc(Br)cc1 ?
17.5 µM (inactive)

What GI50 value was documented for this compound, O=C(Nc1ccn(C2CC(O)C(CO)O2)c(=O)n1)c1ccccc1 (stereo not drawn) ?
> 100 µM (inactive)

What GI50 value was documented for this compound, COC1=C(OC)C(=O)C(Sc2ccc3ccccc3c2)=CC1=O ?
4.58 µM (inactive)

What GI50 value was documented for this compound, CC(=O)SC(SC(C)=O)SC(C)=O ?
> 100 µM (inactive)

What GI50 value was documented for this compound, Cc1c(-c2ccccc2)c(C#N)c2nnn(-c3ccc(Cl)cc3)c(=O)n12 ?
12.8 µM (inactive)

What GI50 value was documented for this compound, COc1ccc(-c2cc(-c3ccccc3)c(C#N)c(=O)[nH]2)cc1 ?
> 100 µM (inactive)

What GI50 value was documented for this compound, NC(=O)C(=CNC(=S)Nc1ccc(S(=O)(=O)Nc2ccccn2)cc1)C(N)=O ?
46.7 µM (inactive)

What GI50 value was documented for this compound, Cc1nc2ccccc2c(=O)n1/N=C(\N=N\c1cccc(Cl)c1)c1ccccc1Cl ?
36 µM (inactive)

----------
Tested on: HCC 2998
experimental-protocol: NCI tumour cell line growth inhibition, 48 h
The source made the active and inactive calls. Rule as the data show it: active = GI50 up to about 1.1 µM and inactive = higher.
Pick one and only one: active, inactive

CC(=O)OC1C(COC(N)=O)OC(n2c(-c3ccc(C)cc3)cc(-c3ccccc3)c(C#N)c2=O)C(OC(C)=O)C1OC(C)=O (stereo not drawn)    inactive
Cc1ccc2nc(-c3ccc(N)c(Br)c3)sc2c1    inactive
CCC(O)(Cc1ccc(OC)cc1)c1ccc(OC)cc1 (stereo not drawn)    inactive
C=Cc1cc(OC)c2c(c1)c(=O)oc1c2cc(OC)c2c(O)ccc(C3OC(C)C(O)C(C)(O)C3O)c21 (stereo not drawn)    active
C/C(CC(=O)Nc1ccc([N+](=O)[O-])cc1)=N\Nc1ccc([N+](=O)[O-])cc1[N+](=O)[O-]    inactive
CCN(CC)CCSc1nc2cccc([N+](=O)[O-])c2[nH]1    inactive
COC1/C=C/OC2(C)Oc3c(C)c(O)c4c(c3C2=O)C(=O)C=C(NC(=O)/C(C)=C\C=C\C(C)C(OC=O)C(C)C(O)C(C)C(OC(C)=O)C1C)C4=O (stereo not drawn)    inactive

From here, focus on the item given below.
What was the test verdict on C[C@]12CCC(=O)C=C1CC[C@@H]1[C@@H]2CC[C@]2(C)C(=O)NC(=O)C[C@@H]12 ?
inactive

These measurements were taken from ChEMBL document CHEMBL1201862.
